The following compounds are listed with their measured EC50 values.
# Test system: HD cell line L428
# assay-details: Chemotherapeutic drugs on L428 cells pre-cultured with or without cross-linked AC10 (3H-thymidine)
# Format: cell-based
# assay-setup: Homo sapiens, L-428; L428, drug alone; read-out: EC50 (drug alone)
reported-endpoint: EC50

compound: COc1cccc2c1C(=O)c1c(O)c3c(c(O)c1C2=O)C[C@@](O)(C(=O)CO)C[C@@H]3O[C@H]1C[C@H](N)[C@H](O)[C@H](C)O1
result: ~0.045 µM
--
compound: COc1cc([C@@H]2c3cc4c(cc3[C@@H](O[C@@H]3O[C@@H]5CO[C@@H](C)O[C@H]5[C@H](O)[C@H]3O)[C@H]3COC(=O)[C@H]23)OCO4)cc(OC)c1O [Etoposide]
result: ~1.5 µM
